- target.or.system: cloned human M4 receptor (Homo sapiens)
- Sequence (P08173 1-479): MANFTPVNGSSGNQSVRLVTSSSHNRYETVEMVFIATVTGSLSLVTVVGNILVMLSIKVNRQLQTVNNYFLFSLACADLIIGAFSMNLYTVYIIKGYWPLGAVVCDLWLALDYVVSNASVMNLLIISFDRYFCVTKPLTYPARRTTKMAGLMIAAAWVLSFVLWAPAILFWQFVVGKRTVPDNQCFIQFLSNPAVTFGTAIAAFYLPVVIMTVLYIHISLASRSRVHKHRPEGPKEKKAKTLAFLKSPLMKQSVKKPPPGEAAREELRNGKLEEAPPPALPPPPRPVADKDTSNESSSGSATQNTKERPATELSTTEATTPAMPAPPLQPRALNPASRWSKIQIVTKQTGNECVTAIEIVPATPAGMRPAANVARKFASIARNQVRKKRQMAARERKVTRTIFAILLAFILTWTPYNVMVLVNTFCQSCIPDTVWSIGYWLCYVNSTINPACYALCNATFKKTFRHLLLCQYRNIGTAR
- assay.remarks: hM4 receptor GTPγS binding
- condition.set: CHO membranes expressing hM4, [35S]GTPγS binding
parameter.measured: EC50

compound="O=C1CO[C@H]2CCCC[C@@H]2N1C1CCN(C2CCC(COCCF)CC2)CC1 (single isomer, unassigned) [Example 25]" parameter_measured=EC50 reported_result="> 26.5 µM"
compound=CCOC[C@H]1CC[C@@H](N2CCC(N3C(=O)CO[C@H]4CCCC[C@@H]43)CC2)C1 parameter_measured=EC50 reported_result="4.24 µM"
compound="O=C1CO[C@H]2CCCC[C@@H]2N1C1CCN(C2CCC(COCC3CC3)CC2)CC1 (single isomer, unassigned) [Example 22]" parameter_measured=EC50 reported_result="> 90 µM"
compound="CC(C)OCC1CCC(N2CCC(N3C(=O)NC[C@H]4CCCC[C@@H]43)CC2)CC1 (single isomer, unassigned)" parameter_measured=EC50 reported_result="0.683 µM"
compound="O=C1CO[C@H]2CCCC[C@@H]2N1C1CCN(C2CCC(COCCF)CC2)CC1 (single isomer, unassigned) [Example 24]" parameter_measured=EC50 reported_result="> 90 µM"

Data request: Reported EC50, compound CCCOCC1CCC(N2CCC(N3C(=O)NC[C@H]4CCCC[C@@H]43)CC2)CC1 (single isomer, unassigned) [Example 02] : ____
Data returned: 0.521 µM

Data request: What would you report for CCOCC1CCC(N2CCC(N3C(=O)NC[C@H]4CCCC[C@@H]43)CC2)CC1 (mixture of isomers) ?
Data returned: 0.985 µM

Data request: What would you report for CCOCC1CCC(N2CCC(N3C(=O)CO[C@H]4CCCC[C@@H]43)CC2)C1 (single isomer, unassigned) [Example 45] ?
Data returned: > 14.7 µM

Data request: What would you report for O=C1CO[C@H]2CCCC[C@@H]2N1C1CCN(C2CC(COCC3CCC3)C2)CC1 (single isomer, unassigned) ?
Data returned: > 90 µM

Data request: What would you report for CCOC[C@@H]1CC[C@H](N2CCC(N3C(=O)CO[C@H]4CCCC[C@@H]43)CC2)C1 ?
Data returned: > 28.1 µM

Data request: What would you report for CCCOC1CCC(N2CCC(N3C(=O)NC[C@H]4CCCC[C@@H]43)CC2)CC1 (single isomer, unassigned) ?
Data returned: > 90 µM

Data request: What would you report for CC(C)OCC1CCC(N2CCC(N3C(=O)CO[C@H]4CCCC[C@@H]43)CC2)CC1 (mixture of isomers) [Example 15] ?
Data returned: > 33.5 µM

Data request: What would you report for O=C1CO[C@H]2CCCC[C@@H]2N1C1CCN(C2CCC(COCC3CC3)CC2)CC1 (single isomer, unassigned) [Example 23] ?
Data returned: > 90 µM

Data request: What would you report for CC(C)OCC1CCC(N2CCC(N3C(=O)CO[C@H]4CCC(F)(F)C[C@@H]43)CC2)CC1 (single isomer, unassigned) [Example 37] ?
Data returned: > 90 µM

----------
- target.or.system: hM1 (human Muscarinic receptor subtype 1) (Homo sapiens, UniProt P11229)
- Sequence (P11229 whole entry): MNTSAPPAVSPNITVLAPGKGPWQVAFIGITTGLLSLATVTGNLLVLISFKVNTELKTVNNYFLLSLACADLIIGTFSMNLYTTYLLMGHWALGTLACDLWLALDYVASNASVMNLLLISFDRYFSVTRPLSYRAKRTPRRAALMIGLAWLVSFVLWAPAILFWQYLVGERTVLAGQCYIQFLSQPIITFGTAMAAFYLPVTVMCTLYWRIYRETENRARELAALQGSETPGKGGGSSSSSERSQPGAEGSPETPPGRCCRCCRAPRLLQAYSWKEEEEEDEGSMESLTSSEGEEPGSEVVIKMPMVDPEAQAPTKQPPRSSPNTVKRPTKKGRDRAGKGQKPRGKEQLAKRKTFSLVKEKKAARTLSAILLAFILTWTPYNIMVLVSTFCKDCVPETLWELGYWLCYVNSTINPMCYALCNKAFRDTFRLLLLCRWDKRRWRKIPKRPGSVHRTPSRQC
- assay.remarks: Human M1 calcium mobilization FLIPR assay
- condition.set: hM1 expressed in CHO cells, intracellular Ca2+ release (FLIPR)
pEC50: −log10 of the molar value.
parameter.measured: pEC50

The following compounds have reported results that may help.
compound="O=C1COC2CCCC2N1C1CCN([C@H]2CC[C@@H](COCC3CC3)CC2)CC1 (single isomer, unassigned) [Example 48]" parameter_measured=pEC50 reported_result=7.82
compound="CC(C)OC1CCC(N2CCC(N3C(=O)NC[C@H]4CCCC[C@@H]43)CC2)CC1 (single isomer, unassigned)" parameter_measured=pEC50 reported_result=6.18
compound="O=C1CO[C@H]2CCCC[C@@H]2N1C1CCN(C2CCC(COCC3CC3)CC2)CC1 (single isomer, unassigned) [Example 22]" parameter_measured=pEC50 reported_result=8.25
compound="CCOC[C@H]1CC[C@@H](N2CCC(N3C(=O)COC4CCCCC43)CC2)CC1 (single isomer, unassigned) [Example 33]" parameter_measured=pEC50 reported_result=6.96

P. CC(C)OCC1CCC(N2CCC(N3C(=O)CO[C@@H]4CCC(F)(F)C[C@H]43)CC2)CC1 (single isomer, unassigned) [Example 36]
Q. CCC1CCC(N2CCC(N3C(=O)NC[C@H]4CCCC[C@@H]43)CC2)CC1 (mixture of isomers)
Data request: Lowest pEC50? choose P or Q Return value: the label identifying the chosen record.
Data returned: P

----------
- target.or.system: hM1 (human Muscarinic receptor subtype 1) (Homo sapiens, UniProt P11229)
- assay.remarks: Human M1 calcium mobilization FLIPR assay
- condition.set: hM1 expressed in CHO cells, intracellular Ca2+ release (FLIPR)
pEC50: −log10 of the molar value.
parameter.measured: pEC50

The following compounds have reported results that may help.
compound="CC(C)OCC1CCC(N2CCC(N3C(=O)CO[C@H]4CCCC[C@@H]43)CC2)CC1 (single isomer, unassigned) [Example 19]" target_or_system="hM1 (human Muscarinic receptor subtype 1) (Homo sapiens, UniProt P11229)" reported_result=7.85
compound="O=C1CO[C@H]2CCCC[C@@H]2N1C1CCN(C2CCC(COCC(F)F)CC2)CC1 (single isomer, unassigned) [Example 26]" target_or_system="hM1 (human Muscarinic receptor subtype 1) (Homo sapiens, UniProt P11229)" reported_result=7.77

A. O=C1CO[C@H]2CCCC[C@@H]2N1C1CCN(C2CC(COCC3CCC3)C2)CC1 (single isomer, unassigned) [Example 40]
B. O=C1CO[C@H]2CCCC[C@@H]2N1C1CCN(C2CCC(COCC3CCC3)CC2)CC1 (single isomer, unassigned) [Example 29]
C. O=C1NC[C@H]2CCCC[C@@H]2N1C1CCN(C2CCC(COCC(F)F)CC2)CC1 (single isomer, unassigned) [Example 51]
D. O=C1CO[C@H]2CCCC[C@@H]2N1C1CCN(C2CCC(COCCF)CC2)CC1 (single isomer, unassigned) [Example 25]
Data request: Kindly order the items shown according to pEC50, from the highest value down. Your answer should be the labels, listed in the requested order.
Data returned: D, C, A, B

A. CC(C)OCC1CCC(N2CCC(N3C(=O)CO[C@H]4CCC(F)(F)C[C@@H]43)CC2)CC1 (single isomer, unassigned) [Example 38]
B. CCOCC1CCC(N2CCC(N3C(=O)NC[C@H]4CCCC[C@@H]43)CC2)CC1 (mixture of isomers) [Example 08]
C. CCCOC1CCC(N2CCC(N3C(=O)CO[C@H]4CCCC[C@@H]43)CC2)CC1 (single isomer, unassigned) [Example 16]
D. CC(C)OCC1CCC(N2CCC(N3C(=O)CO[C@H]4CCC(F)(F)C[C@@H]43)CC2)CC1 (single isomer, unassigned) [Example 37]
E. CCOCC1CCC(N2CCC(N3C(=O)CO[C@H]4CCCC[C@@H]43)CC2)C1 (single isomer, unassigned) [Example 44]
Data request: Kindly order the items shown according to pEC50, from the highest value down. Your answer should be the labels, listed in the requested order.
Data returned: E, B, A, D, C

a. CC(C)OCC1CCC(N2CCC(N3C(=O)CO[C@@H]4CCC(F)(F)C[C@H]43)CC2)CC1 (single isomer, unassigned) [Example 35]
b. CC(C)OCC1CCC(N2CCC(N3C(=O)CO[C@H]4CCCC[C@@H]43)CC2)CC1 (single isomer, unassigned) [Example 18]
Data request: Hi, I'm comparing a with b and wondering which one has the bigger number for pEC50. Any idea? Return value: the label identifying the chosen record.
Data returned: b

I. O=C1CO[C@H]2CCCC[C@@H]2N1C1CCN(C2CCC(OCC3CC3)CC2)CC1 (single isomer, unassigned) [Example 21]
II. CCCOCC1CCC(N2CCC(N3C(=O)NC[C@H]4CCCC[C@@H]43)CC2)CC1 (single isomer, unassigned) [Example 02]
Data request: Hi, I'm comparing I with II and wondering which one has the bigger number for pEC50. Any idea? Return value: the label identifying the chosen record.
Data returned: II
